Molecular target: Torsin-1A-interacting protein 2 (Homo sapiens) (UniProt Q8NFQ8)
Sequence (Q8NFQ8 whole entry, looked up): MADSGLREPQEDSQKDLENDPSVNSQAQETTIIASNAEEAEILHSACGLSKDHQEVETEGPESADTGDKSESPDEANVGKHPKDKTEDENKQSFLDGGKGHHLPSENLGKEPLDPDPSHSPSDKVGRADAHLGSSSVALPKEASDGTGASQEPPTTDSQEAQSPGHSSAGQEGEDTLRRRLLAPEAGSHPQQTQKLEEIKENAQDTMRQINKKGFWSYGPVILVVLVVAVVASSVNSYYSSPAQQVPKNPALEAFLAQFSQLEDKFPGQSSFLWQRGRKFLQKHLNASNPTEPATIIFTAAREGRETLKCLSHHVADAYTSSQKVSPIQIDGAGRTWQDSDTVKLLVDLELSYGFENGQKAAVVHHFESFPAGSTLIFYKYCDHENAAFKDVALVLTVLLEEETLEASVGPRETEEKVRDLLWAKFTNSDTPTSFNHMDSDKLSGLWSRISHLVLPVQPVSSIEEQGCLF
Experiment: LULL1 binders on small-molecule microarray, primary screen, cell lysate, human LULL1 lysate, 635/667 nm fluorescence (AID 1092);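 also: probe is lysate of COS7 cells overexpressing human LULL1; score merges per-feature 667 nm fluorescence with signal-to-noise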
Conditions: hLULL1 lysate binding, 635 nm fluorescence, higher = more signal
Reported composite z-score is given for each of the following compounds.
// print number alone

Completed entries (count: 5):
[[record]]
compound = "O=C1C2C=CC(C(O)c3ccc(Br)cc3)N(Nc3ccccc3F)C2C(=O)N1c1ccccc1 (stereo unspecified)"
quantity_name = "composite z-score"
recorded_number = 2.97

[[record]]
compound = "COc1ccc(-c2nc(-c3ccccc3)c3c(c2C)CO[Si]3(C(C)C)C(C)C)cn1"
quantity_name = "composite z-score"
recorded_number = 0.498

[[record]]
compound = "COCCOC(=O)N1C(=O)[C@@]2(c3cc(C#Cc4ccc(OC)cc4)ccc31)[C@H](c1ccccc1OCCO)N1[C@H](c3ccccc3)[C@H](c3ccccc3)OC(=O)[C@H]1[C@@H]2C(=O)N1CCCCCCC1"
quantity_name = "composite z-score"
recorded_number = 3.85

[[record]]
compound = "CC(C)(C)OC(=O)CC[C@@]1(C(=O)NCc2ccccc2)N=C(c2ccc(OCCCO)cc2)O[C@@H]1c1ccccc1N=[N+]=[N-]"
quantity_name = "composite z-score"
recorded_number = 3.25

[[record]]
compound = "COc1ccc(C(O)C2C=CC3C(=O)N(c4ccccc4)C(=O)C3N2Nc2ccc([N+](=O)[O-])cc2)cc1 (stereo unspecified)"
quantity_name = "composite z-score"
recorded_number = 3.09


Reported composite z-score ( `Cc1ccc(S[C@]2(C(=O)NCC(F)(F)F)CC(=O)N(Cc3ccccc3C(F)(F)F)[C@@H]2c2ccc(CO)cc2I)cc1` ) = 0.779

Reported composite z-score ( Cn1cccc1C(O)C1C=CC2C(=O)NC(=O)C2N1Nc1ccc(Cl)cc1Cl (stereo unspecified) ) = 3.52

Reported composite z-score ( `Cc1ccc(S[C@]2(C(=O)NCC(F)(F)F)CC(=O)N(Cc3ccccc3)[C@@H]2c2ccc(CO)cc2I)cc1` ) = 1.62

---

Assay: PSAC antagonists in infected red cells, primary screen, cell-based, P. falciparum Indochina, OD700, 2 h (AID 1155);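 also: lysis reports solute entry through the parasite surface anion channel PSAC; channel blockers reduce lysis of infected cells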
Settings: P. falciparum Indochina infected erythrocytes, osmotic lysis OD700; higher = more signal, called active from +8 up or from −8 down
Label 0 (no) if z-score falls below 0.7; label 1 (yes) in every other case.

[[record]]
compound = "COc1ccc([Si](C)(C)[C@@H]2[C@@H](CC(=O)N3Cc4ccccc4C[C@H]3CO)O[C@]3(C(=O)N(Cc4cccc(N5C(=O)c6cccc7cccc5c67)c4)c4ccccc43)[C@H]2C)cc1"
label_value = "1 (yes)"


Q. In plain terms: is recorded z-score at least 0.7 for `C=CCOC(=O)[C@H]1[C@@H]2C(=O)O[C@@H](c3ccccc3)[C@@H](c3ccccc3)N2[C@@H](c2ccc(OCCOC(=O)[C@@H]3C[C@@H]4C(=O)N[C@@H](CCCCN(C)C)C(=O)N4[C@@H]3c3ccc(O)cc3)cc2)[C@]12C(=O)Nc1ccccc12` ?
A. 0 (no)

Q. In plain terms: is recorded z-score at least 0.7 for `COC(=O)[C@@]1(Cc2ccccc2)[C@H]2c3cc(C(=O)N(C)C)n(CCN4CNCC4=O)c3C[C@H]2CN1C(=O)c1ccccc1` ?
A. 1 (yes)

Q. In plain terms: is recorded z-score at least 0.7 for CCC(CC)C(O)C1C=CC2C(=O)N(c3ccccc3)C(=O)C2N1Nc1ccc(C(C)C)cc1 (stereo not given) ?
A. 1 (yes)

---

Experiment: small-molecule binders of probe aNOTCH3, primary screen, biochemical, small-molecule microarray, 635/667 nm fluorescence (AID 1120);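 also: probe is a biotin-tagged antibody raised against NOTCH3 rather than NOTCH3 protein; score merges spot fluorescence near 667 nm with spot signal to noise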
Conditions: higher = more signal
Label condition not met if composite z-score falls below -0.008; label condition met in every other case.

Q. In plain terms: is recorded composite z-score at least -0.008 for `O=C1O[C@H](c2ccccc2)[C@H](c2ccccc2)N2[C@H]1[C@@H](C(=O)Nc1nc3ccccc3s1)[C@]1(C(=O)Nc3ccc(C#CC4(O)CCCCCC4)cc31)[C@H]2c1ccccc1OCCO` ?
A. condition met

---

Experiment: P. aeruginosa biofilm formation inhibitors, primary screen, PAO1 strain, BacTiter-Glo luminescence, LB-PBS (AID 1144)
Details: 12 h, higher = more signal
The source made the active and inactive calls. The rule behind the calls is not given here.
QUANTITY NAME: z-score

Completed entries (count: 4):
[[record]]
compound = "O=C(N1CCCCC1)[C@@]1(CCS(=O)(=O)c2ccccc2)COC(c2ccc(OCCCO)cc2)=N1"
result = "0.514 (inactive)"

[[record]]
compound = "COC(=O)c1c(CC[C@@H](CO)NC(=O)N2CCC[C@H]2Cn2cc(Cc3ccccc3)nn2)oc(C(C)=O)c1C(=O)OC"
result = "0.726 (inactive)"

[[record]]
compound = "COCCOC(=O)N1C(=O)[C@@]2(c3cc(C#CC4=CCCCC4)ccc31)[C@H](c1ccc(O)cc1)N1[C@H](c3ccccc3)[C@H](c3ccccc3)OC(=O)[C@H]1[C@@H]2C(=O)N1CCN(c2ncccn2)CC1"
result = "-0.572 (inactive)"

[[record]]
compound = "CN(C)C(=O)[C@@]1(Cc2ccccc2CN=[N+]=[N-])N=C(c2ccc(OCCCO)cc2)O[C@H]1c1ccccc1CN=[N+]=[N-]"
result = "0.427 (inactive)"


Reported z-score ( `O[C@@H](Cc1ccccc1)[C@@H](/C=C/C1CC1)N(CC#Cc1ccccc1)Cc1cccc(Cl)c1` ) = -0.94 (inactive)

Reported z-score ( `COC(=O)[C@@]1(Cc2ccc(OC)cc2)[C@@H]2C(=CC(=O)[C@H]2CC(=O)C(=O)N(C)C)CN1C(=O)c1ccccc1` ) = -0.946 (inactive)

---

Reported z-score is given for each of the following compounds.
Test: HepG2 cell viability effects, profiling panel, calcein-AM fluorescence, 48 h, basal (AID 1164); also: test concentration not given here
Conditions: higher = more signal
// print number alone

Reported z-score ( `Cc1ccc(S[C@]2(C(=O)O)CC(=O)N(Cc3cc(C(F)(F)F)cc(C(F)(F)F)c3)[C@@H]2c2ccc(CO)cc2)cc1` ) = -0.618

Reported z-score ( `COC(=O)C(CC#Cc1ccc2c(c1)[C@]1(C(=O)N2)[C@H](C(=O)N2CCN(c3ncccn3)CC2)[C@H]2C(=O)O[C@H](c3ccccc3)[C@H](c3ccccc3)N2[C@@H]1c1ccc(OCCO)cc1)C(=O)OC` ) = 1.09

Reported z-score ( `CCCC[C@@H](O)C1=C(COc2ccccc2)C[C@H]2C(=O)N(C)C(=O)[C@H]2[C@H]1CO` ) = 1.54

Reported z-score ( COc1cc(OC)c(C(O)C2C=CC3C(=O)N(C)C(=O)C3N2NC(=O)OC(C)(C)C)cc1Br (stereo not drawn) ) = 0.25

Reported z-score ( `C=C(CCCC)/C(=C/C[C@@H](OC(=O)c1ccncc1)c1ccccc1OCCO)c1cnc2ccccc2c1` ) = -0.158

Reported z-score ( `Cc1ccc(S[C@]2(C(=O)O)CC(=O)N(Cc3ccccc3Cl)[C@@H]2c2ccc(CO)cc2I)cc1` ) = -0.828

Reported z-score ( `C=C[C@@H](OC)[C@H](OC(=O)Nc1ccc(SC)cc1)c1ccc(O)c(F)c1` ) = -0.419

Reported z-score ( CN1C(=O)C2C=CC(C(O)C#Cc3ccccc3)N(Nc3ccccc3)C2C1=O (stereo not drawn) ) = -0.255

---

Assay: small-molecule microarray binders of probe aShh, primary screen, biochemical, biotinylated probe, 635/667 nm fluorescence (AID 1114);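 also: probe is biotin-labelled aShh protein from a stem cell growth factor screen; measures binding of labelled protein to compounds printed on the slide; score merges feature fluorescence at 667 nm with signal-to-noise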
Conditions: higher = more signal
Reported composite z-score is given for each of the following compounds.
// print number alone

Reported composite z-score ( `C[N+](C)(C)CCCCCCNC(=O)[C@H]1C[C@H]2C(=O)N[C@@H](Cc3ccccc3)C(=O)N2[C@H]1c1ccc(O)cc1` ) = -0.0146

Reported composite z-score ( `CCOC(=O)C[C@H]1[C@H](OC(=O)c2ccc(C(=O)c3ccccc3)cc2)[C@@H](NC(=O)Cc2ccc(OC)cc2)c2cc(OCCCO)ccc2N1C(=O)c1ccccc1` ) = -0.237

Reported composite z-score ( `C=C(COC)/C(=C/C[C@H](OC(C)=O)c1ccc(OCCO)cc1)c1cc(C(=O)OC)ccc1OC` ) = -0.169

Reported composite z-score ( O=C1OCCC/C=C\[C@H]2OC34C=CCN(CCN5CCOCC5)C(=O)[C@H]3N(CCCCCCO)C(=O)[C@@H]4C12 (some centres not stated) ) = -0.0553

Reported composite z-score ( `O=C(NCCCCCNC(=O)/C(Cc1ccccc1)=N/O)OCc1ccccc1` ) = -0.426

Reported composite z-score ( `O=C1N(Cc2ccccc2)Cc2ccccc2[C@@H]2OC(c3ccc(OCCCO)cc3)=N[C@]12CCS(=O)(=O)c1ccccc1` ) = 0.265

Reported composite z-score ( `[N-]=[N+]=NCc1ccccc1[C@H]1OC(c2ccc(OCCCO)cc2)=N[C@@]1(CCS(=O)(=O)c1ccccc1)C(=O)N1CCCCC1` ) = 0.385
